B1: LINE1-mini (parent)
chain: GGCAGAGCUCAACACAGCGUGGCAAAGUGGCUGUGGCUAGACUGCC

Variants of: B1
Test: self-cleavage, relative activity (ratio to wild type); higher = more cleavage; in vitro, sequencing; the parent is a self-cleaving ribozyme
Consider the reported self-cleavage of an entry and match it to a band in class 1: < 0.06; class 2: ≥ 0.06 and < 0.2; class 3: ≥ 0.2

Answered examples (5):
>>> classification("C13G U28C")
"class 3"
>>> classification("A6C U9A")
"class 2"
>>> classification("G27A G44U")
"class 3"
>>> classification("C8U U34G")
"class 3"
>>> classification("U20C U32A")
"class 1"

## Task Lab note: sort C10A A12G into the matching self-cleavage band.
## Result class 1

## Task Lab note: sort C13U C42A into the matching self-cleavage band.
## Result class 2
